System: forty-four human cancer cell lines
Experiment: Cell proliferation assay (ATPlite, 72 hours) in the 44 cell line Oncolines panel
Type: cell-based
Settings: cell line Jurkat E6.1; read-out: cell panel IC50, Jurkat E6.1
readoutLabel: IC50
Give the figure together with its unit, number first.

Task: For the compound N.N.[Cl][Pt][Cl] [cisplatin] , give its measured IC50 value.
Result: 4.85 µM

* * *

Target: panel of more than 300 wild-type and mutant kinases (313 kinase panel) (Homo sapiens, UniProt P49761)
Sequence (P49761 whole entry, change not shown): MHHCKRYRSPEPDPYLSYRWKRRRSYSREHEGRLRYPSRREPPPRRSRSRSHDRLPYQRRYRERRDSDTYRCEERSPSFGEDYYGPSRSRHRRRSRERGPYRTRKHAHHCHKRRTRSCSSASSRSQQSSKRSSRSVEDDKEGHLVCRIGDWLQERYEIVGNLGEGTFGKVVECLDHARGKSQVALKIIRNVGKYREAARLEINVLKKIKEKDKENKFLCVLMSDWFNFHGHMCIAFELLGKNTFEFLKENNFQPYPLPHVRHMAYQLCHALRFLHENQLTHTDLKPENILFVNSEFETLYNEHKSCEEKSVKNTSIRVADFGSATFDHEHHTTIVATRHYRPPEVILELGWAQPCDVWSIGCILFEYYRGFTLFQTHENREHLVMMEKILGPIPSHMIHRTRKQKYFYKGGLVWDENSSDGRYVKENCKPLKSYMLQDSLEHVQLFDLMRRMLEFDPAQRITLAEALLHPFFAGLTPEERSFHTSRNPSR
Test: Kinase profiling in a biochemical assay panel (mobility shift assays and ELISA), %-inhibition at 1 μM; selectivity entropy
Settings: kinase CLK3; compound at 1 μM
Kindly supply the reported %-inhibition of CLK3 values for the records listed here.
Express your answer as a number followed by its unit.

# batch size: 5; output %-inhibition of CLK3 per entry
1. CC(=O)Nc1cccc(-n2c(=O)n(C3CC3)c(=O)c3c(Nc4ccc(I)cc4F)n(C)c(=O)c(C)c32)c1 [trametinib]
2. CCCS(=O)(=O)Nc1ccc(F)c(C(=O)c2c[nH]c3ncc(-c4ccc(Cl)cc4)cc23)c1F [vemurafenib]
3. CO[C@H]1C[C@@H]2CC[C@@H](C)[C@@](O)(O2)C(=O)C(=O)N2CCCC[C@H]2C(=O)O[C@H]([C@H](C)C[C@@H]2CC[C@@H](OCCO)[C@H](OC)C2)CC(=O)[C@H](C)/C=C(\C)[C@@H](O)[C@@H](OC)C(=O)[C@H](C)C[C@H](C)/C=C/C=C/C=C/1C [everolimus]
4. CC(C)(C)c1nc(-c2cccc(NS(=O)(=O)c3c(F)cccc3F)c2F)c(-c2ccnc(N)n2)s1 [dabrafenib]
5. COc1cc2c(Nc3ccc(Br)cc3F)ncnc2cc1OCC1CCN(C)CC1 [vandetanib]

Result:
-0.0684%
-14%
-9%
17%
-15%

For each of the items listed, what is its %-inhibition of CLK3?
1. Cc1cn(-c2cc(NC(=O)c3ccc(C)c(Nc4nccc(-c5cccnc5)n4)c3)cc(C(F)(F)F)c2)cn1 [nilotinib]
2. Cc1ccc(Nc2nccc(N(C)c3ccc4c(C)n(C)nc4c3)n2)cc1S(N)(=O)=O [pazopanib]
3. CS(=O)(=O)CCNCc1ccc(-c2ccc3ncnc(Nc4ccc(OCc5cccc(F)c5)c(Cl)c4)c3c2)o1 [lapatinib]
4. Cc1nc(Nc2ncc(C(=O)Nc3c(C)cccc3Cl)s2)cc(N2CCN(CCO)CC2)n1 [dasatinib]
5. CO[C@H]1C[C@@H]2CC[C@@H](C)[C@@](O)(O2)C(=O)C(=O)N2CCCC[C@H]2C(=O)O[C@H]([C@H](C)C[C@@H]2CC[C@@H](OC(=O)C(C)(CO)CO)[C@H](OC)C2)CC(=O)[C@H](C)/C=C(\C)[C@@H](O)[C@@H](OC)C(=O)[C@H](C)C[C@H](C)/C=C/C=C/C=C/1C [temsirolimus]
6. CNC(=O)c1cc(Oc2ccc(NC(=O)Nc3ccc(Cl)c(C(F)(F)F)c3)c(F)c2)ccn1 [regorafenib]
7. O=S(=O)(c1cccc2cnccc12)N1CCCNCC1 [fasudil]
8. C[C@@H](Oc1cc(-c2cnn(C3CCNCC3)c2)cnc1N)c1c(Cl)ccc(F)c1Cl [crizotinib]

Result:
1: -10%; 2: 0.791%; 3: 0.469%; 4: 0.469%; 5: -3%; 6: -15%; 7: -0.753%; 8: -5%

Task: For the compound COc1cc2nccc(Oc3ccc(NC(=O)C4(C(=O)Nc5ccc(F)cc5)CC4)cc3)c2cc1OC [cabozantinib] , give its measured %-inhibition of CLK3 value.
Result: -1.24%
